Target: von Willebrand factor (VWF) (Homo sapiens, UniProt P04275 P04275:764-2813)
Test: filter; Bmax 71%; 2 mM CaCl2, 37 C
Details: tags: factor VIII free, Haematologic Technologies Inc; label: 5'-32P
ASSAY_READOUT: pKd
Note on units: pKd is unitless, being -log10 of a concentration expressed in mol/L.

Q. Which pKd value is on record for ACGAACUGCCCUCGAUUUCGACGCACAGACGU (ssRNA, 2'-F C and U; 2'-OH A and G; 3' idT) [T60] ?
A. 7.90

Origin of measurements: patent US20190218553
